Each item that follows carries a reported growth inhibition.
procedureText: NCI Yeast Anticancer Drug Screen. Data for the bub3 strain (AID 167)
particulars: S. cerevisiae bub3 mutant strain, at 50.0 µM, active compounds read high
About 79,000 compounds went through this panel and 15% of them were active in at least one assay; those are over-represented in the sample as a whole.
Lab book: enter the figure in %, no units written.

Worked cases, growth inhibition given:
{"columns": ["compound", "unitText", "growth inhibition"],
 "data": [
  ["CC(C)CN(CC(C)C)C(=S)[S-].CC(C)CN(CC(C)C)C(=S)[S-].[Zn]", "%", 4.65],
  ["CC[N+](C)(CC)Cc1ccc([NH-])c([NH-])c1.[Cl][Pt+2][Cl]", "%", -13.7],
  ["CCOc1ccc(C2=NNC(=O)CC2)cc1", "%", 13.9],
  ["c1ccc(C2OCCO2)c(OCCOc2cc(OCCOc3ccccc3C3OCCO3)c(OCCOc3ccccc3C3OCCO3)cc2OCCOc2ccccc2C2OCCO2)c1", "%", -4.3]
]}

Query block: Complete the entry with growth inhibition for CCCCCCCC[N+]1([O-])CC[N+](C)([O-])CC1 (stereo not drawn)
Result block: -8.3

These data points were gathered from PubChem BioAssay (NCI).
